These data points were gathered from ChEMBL document CHEMBL5442175.

Assay system 5-hydroxytryptamine receptor 2A (Homo sapiens); read-out recorded as Ki.
Structures can show the parent of a compound that is named as a salt.
Report the figure in nM without appending any unit label.

{"columns": ["Compound", "Ki [nM]"],
 "data": [
  ["CC(C)Oc1ccccc1C(=O)Nc1ccccc1C(=O)Nc1cccc(S(=O)(=O)C(F)(F)F)c1", 983],
  ["Cc1ccc2c(c1)c1c(n2CCc2ccc(C)nc2)CCN(C)C1 [LATREPIRDINE]", 726]
]}

Turning to the following compound.
Field request: Ki | item: C[C@@H](NCCCc1cccc(C(F)(F)F)c1)c1cccc2ccccc12 [CINACALCET HYDROCHLORIDE]
842
